# Experimental System: Botulinum neurotoxin type A (Clostridium botulinum) (UniProt P0DPI0)
# Sequence (P0DPI0 2-448 limits assumed): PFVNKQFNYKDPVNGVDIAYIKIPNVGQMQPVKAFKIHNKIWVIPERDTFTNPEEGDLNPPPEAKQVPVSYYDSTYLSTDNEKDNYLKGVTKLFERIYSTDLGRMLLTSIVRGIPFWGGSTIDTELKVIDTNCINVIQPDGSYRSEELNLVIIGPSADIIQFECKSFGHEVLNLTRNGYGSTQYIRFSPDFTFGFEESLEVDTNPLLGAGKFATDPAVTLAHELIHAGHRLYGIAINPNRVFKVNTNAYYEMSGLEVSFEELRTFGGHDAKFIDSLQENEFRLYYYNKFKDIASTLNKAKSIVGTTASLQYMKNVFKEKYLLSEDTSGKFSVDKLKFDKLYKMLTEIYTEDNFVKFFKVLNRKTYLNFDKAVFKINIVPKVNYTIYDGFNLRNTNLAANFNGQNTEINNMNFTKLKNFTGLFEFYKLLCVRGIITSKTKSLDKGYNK
# Assay Name: Inhibition of Clostridium botulinum recombinant neurotoxin A light chain using SNAPtide as substrate at 10 uM after 1 hr by FRET assay relative to control
inhibition values, listed per item
Give the value in % but do not write % after it.

Here's what some known entries look like.
Compound: OCC1(O)OC[C@@H](O)[C@@H](O)[C@@H]1O (stereo not given in full)
Test Readout: inhibition
Units Of Measure: %
Reported Result: 0

Compound: CC[C@@]1([C@@H]2O[C@@H]([C@H]3O[C@@](O)(CO)[C@H](C)C[C@@H]3C)C[C@@H]2C)CC[C@H]([C@]2(C)CC[C@]3(C[C@H](O)[C@@H](C)[C@@H]([C@@H](C)[C@@H](OC)[C@H](C)C(=O)O)O3)O2)O1
Test Readout: inhibition
Units Of Measure: %
Reported Result: 38

Compound: N[C@@H](CCCc1c(CC[C@H](N)C(=O)O)c[n+](CCCC[C@H](N)C(=O)O)cc1CC[C@H](N)C(=O)O)C(=O)[O-]
Test Readout: inhibition
Units Of Measure: %
Reported Result: 25

Compound: Nc1nc(N)c2nc(CNc3ccc(C(=O)N[C@@H](CCC(=O)O)C(=O)O)cc3)cnc2n1
Test Readout: inhibition
Units Of Measure: %
Reported Result: 11

Query: Entry CC(=O)O[C@H]1C(=O)[C@@]2(C)[C@H]([C@H](OC(=O)c3ccccc3)[C@]3(O)C[C@H](OC(=O)[C@H](O)[C@@H](NC(=O)c4ccccc4)c4ccccc4)C(C)=C1C3(C)C)[C@]1(OC(C)=O)CO[C@@H]1C[C@@H]2O has what inhibition?
Result: 85
